The reported numbers originate from the supplement of paper PMC8239392.

- Tested on: TAZ-IND MCF10A-TAZ tumor cells
- test method notes: cell viability relative to DMSO control; higher = less cytotoxic; extreme values may be limits of the assay
- condition parameters: 2.5 µM; 72 h

molecule	cell viability / %
CCN(CC)CCCC(C)Nc1nc(C)cc(Nc2ccc3nc(C)cc(N)c3c2)n1 (stereo not drawn)	90
Cc1[nH]nc(C(F)(F)F)c1Cc1sc2c(c1C(=O)N1C[C@](C)(O)CO1)c(=O)n(C)c(=O)n2C(C)C [AZD3965]	91
COC1CCN(C(=O)c2cc(Cc3n[nH]c(=O)c4ccccc34)ccc2F)CC1 [AZD2461]	91

###

- System: TAZ-IND MCF10A-TAZ tumor cells
- test method notes: cell viability relative to DMSO control; higher = less cytotoxic; extreme values may be limits of the assay
- condition parameters: 0.65 µM; 72 h

compound	value unit	cell viability
O=C(/C=C/c1ccc2ccccc2n1)c1ccncc1 [PFK15]	%	98
O=C1NC(=O)/C(=C/c2ccc(-c3ccc(F)cc3O)o2)S1	%	72
CCn1c2ccccc2c2cc(CNCc3ccccc3OC)ccc21 [HLCL-61]	%	97
CCc1nc(N)nc(N)c1-c1ccc(Cl)cc1 [Pyrimethamine]	%	100
CC(C)(C)c1ccc(S(=O)(=O)NCc2ccc(C(=O)Nc3cccnc3)cc2)cc1 [STF-31]	%	99
COc1ccccc1S(=O)(=O)Nc1ccc2c(c1)CN(C)C(=O)N2	%	100
CN1CCN(CCCNc2ncc(Cl)c(-c3cc4c(C(=O)NC5CC5)cccc4s3)n2)CC1	%	94
